STUDY TARGET: T1, human IL-17A/F heterodimer, bacterially expressed construct (human, UniProt Q16552 40-155; Q96PD4 39-163, limits assumed)
T1 construct: IL-17A unit with N68D, IL-17F unit with N83D and C137S, both with GSEDS spacer; already in the entries
T1 sequence (Q16552 40-155 N68D limits assumed, chain 1 of 2): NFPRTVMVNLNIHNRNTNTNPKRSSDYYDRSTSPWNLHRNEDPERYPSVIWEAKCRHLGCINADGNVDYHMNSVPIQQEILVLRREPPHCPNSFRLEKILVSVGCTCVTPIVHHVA
T1 sequence (Q96PD4 other isoform, or with tags, fused parts or gaps limits assumed, chain 2 of 2): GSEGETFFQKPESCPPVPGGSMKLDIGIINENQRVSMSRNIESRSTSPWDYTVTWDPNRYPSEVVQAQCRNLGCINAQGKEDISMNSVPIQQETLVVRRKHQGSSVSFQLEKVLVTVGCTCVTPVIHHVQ
ASSAY EXPLANATION: BLI, biotinylated VHH immobilized on streptavidin sensors, IL-17 as analyte (10, 20, 40 nM), mass transport fit; apparent value, avidity possible;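 note: wavelength shift (nm) signal, 800 s association then 800 s dissociation, reference from parallel sensors without VHH, avidity from immobilized VHH may lower apparent off-rates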
Quick reference for koff among some binders

Use these answered entries as a reference point.
>>> result("Re42B03 with C-terminal Avi-Biotin-tag, biotinylated (VHH, biotin on the C-terminal Avi-tag (BirA), not shown: C-terminal Avi-Biotin-tag) VHH: QVQLVESGGGLVQAGGSLRLSCAASGLTGSSYAMGWFRQAPGKEREFVAAISWISGGTKYTDSVKDRFTMSRDYAKKQVYLEMNSLKPEDTAVYYCNDMPYGLDTRMDEYVYWGQGTQVTVSS")
"≤ 1e-07 s⁻¹"
>>> result("Bm18B05 with C-terminal Avi-Biotin-tag, biotinylated (VHH, biotin on the C-terminal Avi-tag (BirA), not shown: C-terminal Avi-Biotin-tag) VHH: QVQLVESGGGLVQPGGSLRLSCAVSGRTFSSYAMGWFRRPPGKEREFVAAISWSGGDTKYADFVTDRFTISRDDAKSTVYLQMNSLKPEDTAVYYCNDMPYGLDTRMDEYEYWGQGTQVTVSS")
"≤ 1e-07 s⁻¹"

We now examine a further binder.
Q: Would you mind telling me what koff value was observed for Re42H11 with C-terminal Avi-Biotin-tag, biotinylated (VHH, biotin on the C-terminal Avi-tag (BirA), not shown: C-terminal Avi-Biotin-tag) VHH: QVQLVESGGGLVQAGGSLRLSCAASGLTASSYAMGWFRQAPGKEREFVAAISWISGGTKYADSVKGRFTMSRDNAKKQVYLEMNSLKPEDTAVYYCNDMPYGLDTRMDEYAYWGQGTQVTVSS ?
Ans: ≤ 1e-07 s⁻¹
